- Tested on: CspA (Escherichia coli, UniProt P0A9X9 1-70)
- Sequence (P0A9X9 whole entry): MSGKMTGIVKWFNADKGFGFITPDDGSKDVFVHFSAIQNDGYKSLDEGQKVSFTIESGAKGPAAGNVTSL
- Experimental details: tryptophan fluorescence quenching; 20°C; text calls the G6A variant oligo 6, table and Fig S10 oligo 5; Trp fluorescence: 1 uM CspA, Buffer H, 20°C; EMSA: Buffer O, 15 or 37°C, 10% native PAGE at 4°C; Fe-EDTA footprinting: Buffer N, 15°C; UV cross-linking at 15°C; buffer compositions not given in the material
- Test conditions: protein: recombinant; tags: His-tag (pETM11) removed with TEV; single strand
pKd: −log10 of the molar value.
Measured quantity: pKd

• AACUGAUA (ssRNA) [Oligo 5] = 5.31
